Exercise: state measured Foxtail, Giant plant response rating for each of the molecules provided.
- System: foxtail, giant
- METHOD_SUMMARY: Test A preemergence
- Type: in vivo, Setaria faberii
- CONDITION_DESCRIPTION: preemergence, 125 g ai/ha; visual injury, 0 to 100 scale, approx. 10 days
Numbers only.

MOLECULE	Foxtail, Giant plant response rating
CCc1cc(C(=O)NC(C)C)nn1Cc1cc(C(F)(F)F)nn1CC [Compound 120]	60
CCc1cc(C(=O)NC2CC2)nn1Cc1cccc(C(F)(F)F)n1 [Compound 91]	0
Cc1cc(C(=O)NCC(F)(F)F)nn1Cc1cccc(C(F)(F)F)c1 [Compound 7]	10
CCc1cc(C(=O)Nc2ccc(F)cc2)nn1Oc1ccnc(C(F)(F)F)c1 [Compound 89]	0
CCCCNC(=O)c1cc(C)n(Oc2ccnc(C(F)(F)F)c2)n1 [Compound 85]	0
CCCNC(=O)c1cc(CC)n(Cc2nc(C(F)(F)F)nn2C)n1 [Compound 109]	100

Turning now to a further record.
## Input // fetch Foxtail, Giant plant response rating given entry Cc1cc(C(=O)NCC(F)(F)F)nn1Cc1cccc(OC(F)(F)F)c1 [Compound 5]
## Output 10
